# credit: patent US20220380471A1

Subject Of Test: T1, hB7H3-His (human, UniProt Q5ZPR3 29-461, limits assumed)
T1 construct: not shown: His tag
T1 sequence (looked up): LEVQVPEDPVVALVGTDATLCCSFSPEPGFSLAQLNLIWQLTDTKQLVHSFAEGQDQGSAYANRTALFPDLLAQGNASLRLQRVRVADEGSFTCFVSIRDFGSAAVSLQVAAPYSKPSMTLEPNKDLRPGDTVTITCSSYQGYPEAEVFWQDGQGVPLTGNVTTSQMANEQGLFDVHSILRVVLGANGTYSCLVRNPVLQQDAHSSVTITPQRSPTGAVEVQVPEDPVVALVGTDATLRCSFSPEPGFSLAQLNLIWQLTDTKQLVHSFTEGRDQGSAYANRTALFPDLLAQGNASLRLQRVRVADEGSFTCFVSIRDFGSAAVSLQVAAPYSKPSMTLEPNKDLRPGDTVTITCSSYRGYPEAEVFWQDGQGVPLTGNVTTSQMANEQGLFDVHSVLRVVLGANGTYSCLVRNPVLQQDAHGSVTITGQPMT
Method: ELISA, purified VHH
Readout Label: ELISA signal

Examples with answers:
INSERT INTO measurements (binder, value_reported) VALUES
  ('RWH1 (VHH, Camel VHH; tag not described; also called camel antibody RWH1) VHH: AVQLVESGGGSVQAGGSLRLSCAASGMNLDNYVRGWLRQAPGSKCEFVSIIRRDGTTDYGDSVKGRFTISRDNAKNTVYLQMNSLKPDDTAVYYCAAIVVPRAAEYACDGLPYRGQGTQVTVSS', 2.65),
  ('RWG4 (VHH, Camel VHH; tag not described; also called camel antibody RWG4) VHH: QVQLVQSGGGLVQPGGSLRLSCAASGFTFSVYWFYWVRQAPRQGLEWVSTIASNGSTYYSDSVKGRFTISRDNAKNTVYLQMNSLKPEDTAVYYCVSDPDYYSDYERAYKFWAQGTQVTVSS', 2.55),
  ('RWB12 (VHH, Camel VHH; tag not described; also called camel antibody RWB12) VHH: QVQLVESGGGSVQVGGSLRLSCAASGFTYNSYSVGWFRQAPGKEREGVAAINSGGSSTYYAASVKGRFTISRDNAKNTVYLQMNSLKPEDTAMYYCAARSPSPLTFQTRTLREDSYNYWGQGTQVTVSS', 0.686),
  ('RWC4 (VHH, Camel VHH; tag not described; also called camel antibody RWC4) VHH: EVQLVESGGGSVQAGGSLRLSCVASEDSTSAMCMGWFRQAPGKEREGVACINPTGEVTWYGDSVKGRFTISRDTVKKIVYLQMNSLKPEDTAMYYCAARVTYGGDWSTDTDYEYWGQGTQVTVSS', 2.44);

[a] RWB2 (VHH, Camel VHH; tag not described; also called camel antibody RWB2) VHH: AVQLVDSGGGSVQAGGSLRLSCVVSGYAFSTYDMAWFRQAPGEKCEWVSTVTNNGRTFYADSVKGRFIISRDNAKNILYLQMNSLKPEDTAVYSCAAAGVRWRCASGGNEGTQVTVSS
[b] RWG8 (VHH, Camel VHH; tag not described; also called camel antibody RWG8) VHH: DVQLVESGGGLVQPGGSLRLSCAASGFTFSRYWMGWFRQAPGKGVEWVSTINSGGGSTYYADSVKGRFTISRDNAKNTLYLQLNNLKTEDTAMYYCAKEQWRTGSRGQGTQVTVSS
So which one has the bigger ELISA signal here, a or b ? Give the chosen item's label as your response.
b
(b: 1.04, a: 0.152)
